Below, each entry is listed alongside its reported Activity.
# experimental_target: Muscarinic acetylcholine receptor M1 (Homo sapiens)
# method_summary: Percent decrease of Muscarinic acetylcholine receptor M1 binding using pirenzepine
# Parameters: scale not given: the % may be the effect or the level left
test_readout: Activity (%)

> print(dat)
                                   compound  test.readout  observed.result
1         CN1CCc2ccccc2Cc2[nH]c3ccccc3c2CC1      Activity               -9
2  C[N+]12CCc3c([nH]c4ccccc34)C1c1[nH]c3ccccc3c1CC2 (configuration not stated)      Activity              -15
3  CN1CCc2c([nH]c3ccccc23)Cc2[nH]c3ccccc3c2CC1      Activity              -14
4  c1ccc2c(c1)CCN1CCc3c([nH]c4ccccc34)C21 (configuration not stated)      Activity              -22
5  COc1cc2c(cc1OC)Cc1[nH]c3ccccc3c1CCN(C)CC2      Activity              -22
6  c1ccc2c3c([nH]c2c1)C1c2[nH]c4ccccc4c2CCN1CC3      Activity              -18
7  COc1cc2c(cc1OC)C1c3[nH]c4ccccc4c3CCN1CC2 (configuration not stated)      Activity              -11

* * *

# experimental_target: 5-hydroxytryptamine receptor 1A (Homo sapiens) (UniProt P08908)
# Sequence (whole entry): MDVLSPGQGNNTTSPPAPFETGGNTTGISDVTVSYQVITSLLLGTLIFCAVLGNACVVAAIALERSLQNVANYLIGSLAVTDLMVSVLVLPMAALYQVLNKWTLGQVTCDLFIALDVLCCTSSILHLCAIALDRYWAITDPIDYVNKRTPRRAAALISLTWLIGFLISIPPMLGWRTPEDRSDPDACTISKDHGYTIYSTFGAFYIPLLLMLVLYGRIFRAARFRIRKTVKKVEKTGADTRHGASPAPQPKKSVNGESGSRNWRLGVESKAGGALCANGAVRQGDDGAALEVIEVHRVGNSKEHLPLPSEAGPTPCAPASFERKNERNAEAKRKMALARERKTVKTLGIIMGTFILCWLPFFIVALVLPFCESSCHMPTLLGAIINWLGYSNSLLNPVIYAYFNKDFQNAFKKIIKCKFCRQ
# method_summary: Percent decrease in 5-hydroxytryptamine 1A receptor binding using 8-OH-DPAT
# Parameters: concentration or dose not given beside the values
Rule: Activity of -20% or more gives rule met; anything lower gives rule not met.

> print(dat)
                                   compound                       experimental.target  class.assignment
1  COc1cc2c(cc1OC)Cc1[nH]c3ccccc3c1CCN(C)CC2  5-hydroxytryptamine receptor 1A (Homo sapiens) (UniProt P08908)      rule not met
2  CN1CCc2c([nH]c3ccccc23)Cc2[nH]c3ccccc3c2CC1  5-hydroxytryptamine receptor 1A (Homo sapiens) (UniProt P08908)      rule not met
3  COc1cc2c(cc1OC)C1c3[nH]c4ccccc4c3CCN1CC2 (configuration not stated)  5-hydroxytryptamine receptor 1A (Homo sapiens) (UniProt P08908)      rule not met
4  c1ccc2c3c([nH]c2c1)C1c2[nH]c4ccccc4c2CCN1CC3  5-hydroxytryptamine receptor 1A (Homo sapiens) (UniProt P08908)      rule not met
5  c1ccc2c(c1)CCN1CCc3c([nH]c4ccccc34)C21 (configuration not stated)  5-hydroxytryptamine receptor 1A (Homo sapiens) (UniProt P08908)          rule met
6  C[N+]12CCc3c([nH]c4ccccc34)C1c1[nH]c3ccccc3c1CC2 (configuration not stated)  5-hydroxytryptamine receptor 1A (Homo sapiens) (UniProt P08908)          rule met
7         CN1CCc2ccccc2Cc2[nH]c3ccccc3c2CC1  5-hydroxytryptamine receptor 1A (Homo sapiens) (UniProt P08908)      rule not met

* * *

# experimental_target: UniProtKB P61169
# Sequence (P61169 whole entry): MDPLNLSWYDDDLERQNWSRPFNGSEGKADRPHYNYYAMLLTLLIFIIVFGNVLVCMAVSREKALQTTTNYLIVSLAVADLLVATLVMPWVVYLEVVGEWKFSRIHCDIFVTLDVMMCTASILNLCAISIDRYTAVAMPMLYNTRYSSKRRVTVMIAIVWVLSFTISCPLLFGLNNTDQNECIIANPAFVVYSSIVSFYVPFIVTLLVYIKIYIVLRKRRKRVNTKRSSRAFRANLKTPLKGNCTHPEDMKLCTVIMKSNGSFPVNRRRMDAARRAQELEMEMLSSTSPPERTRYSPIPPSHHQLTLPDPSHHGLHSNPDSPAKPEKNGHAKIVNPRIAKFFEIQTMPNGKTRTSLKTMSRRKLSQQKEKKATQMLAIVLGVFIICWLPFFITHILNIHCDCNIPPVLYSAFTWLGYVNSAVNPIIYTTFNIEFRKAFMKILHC
# method_summary: Percent decrease in Dopamine receptor D2 binding using spiperone
# Parameters: scale not given: the % may be the effect or the level left
test_readout: Activity (%)

> print(dat)
                                   compound  experimental.target  observed.result
1  C[N+]12CCc3c([nH]c4ccccc34)C1c1[nH]c3ccccc3c1CC2 (centres undefined)     UniProtKB P61169              -22
2  c1ccc2c(c1)CCN1CCc3c([nH]c4ccccc34)C21 (centres undefined)     UniProtKB P61169              -19
3  COc1cc2c(cc1OC)C1c3[nH]c4ccccc4c3CCN1CC2 (centres undefined)     UniProtKB P61169              -11
4  c1ccc2c3c([nH]c2c1)C1c2[nH]c4ccccc4c2CCN1CC3     UniProtKB P61169              -51

* * *

Reported Activity values for a set of compounds
# method_summary: % Decrease of adenosine carrier-receptor -bound radioactivity using NBTI as a radioligand.
# Set-up: concentration or dose not given beside the values
test_readout: Activity (%)

> print(dat)
                                   compound  test.readout  observed.result
1         CN1CCc2ccccc2Cc2[nH]c3ccccc3c2CC1      Activity              -14
2  CN1CCc2c([nH]c3ccccc23)Cc2[nH]c3ccccc3c2CC1      Activity              -11
3  C[N+]12CCc3c([nH]c4ccccc34)C1c1[nH]c3ccccc3c1CC2 (configuration not stated)      Activity                7
4  COc1cc2c(cc1OC)Cc1[nH]c3ccccc3c1CCN(C)CC2      Activity               -9
5  COc1cc2c(cc1OC)C1c3[nH]c4ccccc4c3CCN1CC2 (configuration not stated)      Activity              -17
6  c1ccc2c3c([nH]c2c1)C1c2[nH]c4ccccc4c2CCN1CC3      Activity                1
7  c1ccc2c(c1)CCN1CCc3c([nH]c4ccccc34)C21 (configuration not stated)      Activity              -29

* * *

# experimental_target: GABA-A receptor; anion channel (Homo sapiens) (UniProt P14867+P47870+P18507+P28472+P48169+Q99928+Q9UN88+P34903+O00591+O14764+Q8N1C3+P18505+P78334+P47869+P31644+Q16445)
# method_summary: Displacement of muscimol from GABA-A receptor
# Format: protein-complex assay
test_readout: Activity (%)

> print(dat)
                                   compound  observed.result
1  C[N+]12CCc3c([nH]c4ccccc34)C1c1[nH]c3ccccc3c1CC2 (configuration not stated)               -4
2  COc1cc2c(cc1OC)C1c3[nH]c4ccccc4c3CCN1CC2 (configuration not stated)              -26
3  c1ccc2c3c([nH]c2c1)C1c2[nH]c4ccccc4c2CCN1CC3                5
4         CN1CCc2ccccc2Cc2[nH]c3ccccc3c2CC1               -9
5  COc1cc2c(cc1OC)Cc1[nH]c3ccccc3c1CCN(C)CC2              -23
6  CN1CCc2c([nH]c3ccccc23)Cc2[nH]c3ccccc3c2CC1               -4
7  c1ccc2c(c1)CCN1CCc3c([nH]c4ccccc34)C21 (configuration not stated)              -17

* * *

# experimental_target: Sulfonylurea receptors; K-ATP channels (Homo sapiens) (UniProt Q14654+O60706+Q09428+Q15842)
# Sequence (O60706 whole entry, looked up): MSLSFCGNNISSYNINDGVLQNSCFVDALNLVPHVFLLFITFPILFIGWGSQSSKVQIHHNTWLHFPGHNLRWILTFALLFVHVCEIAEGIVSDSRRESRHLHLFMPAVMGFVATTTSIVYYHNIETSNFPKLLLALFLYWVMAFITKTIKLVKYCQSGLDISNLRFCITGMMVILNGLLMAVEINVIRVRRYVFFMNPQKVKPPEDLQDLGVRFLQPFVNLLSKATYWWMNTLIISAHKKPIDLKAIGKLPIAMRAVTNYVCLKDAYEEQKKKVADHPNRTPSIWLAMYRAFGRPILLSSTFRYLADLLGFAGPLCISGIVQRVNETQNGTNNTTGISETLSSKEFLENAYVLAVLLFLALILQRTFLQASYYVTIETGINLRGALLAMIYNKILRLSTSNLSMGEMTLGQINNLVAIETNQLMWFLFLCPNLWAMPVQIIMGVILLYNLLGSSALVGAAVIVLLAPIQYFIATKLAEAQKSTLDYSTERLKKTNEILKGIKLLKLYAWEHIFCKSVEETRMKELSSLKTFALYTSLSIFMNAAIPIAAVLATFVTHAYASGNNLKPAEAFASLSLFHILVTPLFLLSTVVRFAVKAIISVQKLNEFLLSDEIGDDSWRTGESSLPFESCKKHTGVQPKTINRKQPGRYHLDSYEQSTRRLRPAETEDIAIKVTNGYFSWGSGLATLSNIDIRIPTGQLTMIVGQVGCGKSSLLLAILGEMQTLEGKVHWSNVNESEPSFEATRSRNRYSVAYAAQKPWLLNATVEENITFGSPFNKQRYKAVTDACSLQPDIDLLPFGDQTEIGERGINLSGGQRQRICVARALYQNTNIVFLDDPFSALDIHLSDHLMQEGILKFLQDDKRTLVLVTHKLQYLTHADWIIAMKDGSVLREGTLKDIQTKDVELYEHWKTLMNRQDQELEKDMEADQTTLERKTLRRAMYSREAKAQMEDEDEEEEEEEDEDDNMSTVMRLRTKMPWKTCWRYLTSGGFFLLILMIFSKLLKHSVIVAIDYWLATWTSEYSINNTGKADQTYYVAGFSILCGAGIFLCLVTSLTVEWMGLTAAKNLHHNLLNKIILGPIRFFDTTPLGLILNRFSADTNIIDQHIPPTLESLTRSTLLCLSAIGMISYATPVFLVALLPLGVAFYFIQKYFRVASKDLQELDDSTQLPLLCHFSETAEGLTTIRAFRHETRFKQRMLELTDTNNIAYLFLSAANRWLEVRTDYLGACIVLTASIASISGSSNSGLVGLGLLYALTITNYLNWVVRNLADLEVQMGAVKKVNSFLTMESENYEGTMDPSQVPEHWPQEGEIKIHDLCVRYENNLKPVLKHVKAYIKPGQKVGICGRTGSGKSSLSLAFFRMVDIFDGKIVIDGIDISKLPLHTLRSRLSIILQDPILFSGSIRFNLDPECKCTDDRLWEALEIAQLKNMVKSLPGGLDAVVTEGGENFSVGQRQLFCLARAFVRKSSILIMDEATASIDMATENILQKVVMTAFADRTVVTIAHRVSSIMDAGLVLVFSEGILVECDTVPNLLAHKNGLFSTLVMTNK
# Sequence (Q09428 whole entry, looked up): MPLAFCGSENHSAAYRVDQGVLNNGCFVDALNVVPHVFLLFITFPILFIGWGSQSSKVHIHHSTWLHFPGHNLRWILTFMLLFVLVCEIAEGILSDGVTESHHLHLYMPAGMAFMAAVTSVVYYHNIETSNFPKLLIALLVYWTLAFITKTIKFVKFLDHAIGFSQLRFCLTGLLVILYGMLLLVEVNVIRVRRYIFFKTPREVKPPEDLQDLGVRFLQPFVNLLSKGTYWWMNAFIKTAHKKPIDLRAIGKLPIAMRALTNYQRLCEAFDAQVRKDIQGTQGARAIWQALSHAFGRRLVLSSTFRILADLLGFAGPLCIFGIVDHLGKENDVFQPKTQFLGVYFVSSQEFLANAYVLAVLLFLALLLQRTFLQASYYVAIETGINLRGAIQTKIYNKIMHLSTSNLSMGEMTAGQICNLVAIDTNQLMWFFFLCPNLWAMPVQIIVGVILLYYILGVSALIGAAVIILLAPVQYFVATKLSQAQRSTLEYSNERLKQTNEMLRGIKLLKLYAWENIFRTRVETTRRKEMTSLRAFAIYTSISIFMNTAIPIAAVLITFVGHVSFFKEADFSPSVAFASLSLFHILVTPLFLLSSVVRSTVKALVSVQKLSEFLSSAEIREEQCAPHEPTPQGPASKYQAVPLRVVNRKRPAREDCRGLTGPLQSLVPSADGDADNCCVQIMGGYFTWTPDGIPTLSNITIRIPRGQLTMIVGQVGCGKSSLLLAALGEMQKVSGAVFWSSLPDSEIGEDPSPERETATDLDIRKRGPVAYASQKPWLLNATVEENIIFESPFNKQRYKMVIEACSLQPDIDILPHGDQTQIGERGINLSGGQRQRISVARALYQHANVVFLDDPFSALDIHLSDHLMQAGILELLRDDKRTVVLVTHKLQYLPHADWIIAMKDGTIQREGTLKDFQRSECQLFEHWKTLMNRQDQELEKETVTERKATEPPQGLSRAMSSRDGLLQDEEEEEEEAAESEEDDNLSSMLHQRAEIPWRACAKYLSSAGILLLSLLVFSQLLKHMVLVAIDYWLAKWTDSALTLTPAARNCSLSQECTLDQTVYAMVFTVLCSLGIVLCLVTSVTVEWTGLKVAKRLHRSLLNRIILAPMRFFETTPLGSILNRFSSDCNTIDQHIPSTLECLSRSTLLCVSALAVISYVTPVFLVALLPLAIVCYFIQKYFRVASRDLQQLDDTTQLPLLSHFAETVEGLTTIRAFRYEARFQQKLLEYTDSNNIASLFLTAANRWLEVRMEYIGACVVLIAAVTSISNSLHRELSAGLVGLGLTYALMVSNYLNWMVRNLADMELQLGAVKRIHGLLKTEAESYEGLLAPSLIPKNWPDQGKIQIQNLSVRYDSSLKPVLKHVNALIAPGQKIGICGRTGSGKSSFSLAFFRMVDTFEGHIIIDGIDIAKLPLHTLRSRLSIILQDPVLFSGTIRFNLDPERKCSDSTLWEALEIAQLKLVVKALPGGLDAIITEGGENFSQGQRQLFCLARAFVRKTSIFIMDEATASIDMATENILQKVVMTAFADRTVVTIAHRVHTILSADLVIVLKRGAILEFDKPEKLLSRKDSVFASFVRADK
# Sequence (Q14654 whole entry, looked up): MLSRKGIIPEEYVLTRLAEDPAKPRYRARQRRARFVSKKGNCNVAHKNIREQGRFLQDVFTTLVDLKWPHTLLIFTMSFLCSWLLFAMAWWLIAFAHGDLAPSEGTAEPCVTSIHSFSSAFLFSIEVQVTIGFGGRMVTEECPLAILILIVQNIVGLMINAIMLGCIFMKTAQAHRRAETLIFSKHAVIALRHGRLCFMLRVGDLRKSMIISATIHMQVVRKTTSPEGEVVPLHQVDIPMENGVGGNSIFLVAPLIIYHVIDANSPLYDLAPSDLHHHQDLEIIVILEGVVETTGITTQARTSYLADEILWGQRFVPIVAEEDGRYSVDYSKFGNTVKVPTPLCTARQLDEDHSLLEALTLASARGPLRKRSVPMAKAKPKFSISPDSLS
# Sequence (Q15842 whole entry, looked up): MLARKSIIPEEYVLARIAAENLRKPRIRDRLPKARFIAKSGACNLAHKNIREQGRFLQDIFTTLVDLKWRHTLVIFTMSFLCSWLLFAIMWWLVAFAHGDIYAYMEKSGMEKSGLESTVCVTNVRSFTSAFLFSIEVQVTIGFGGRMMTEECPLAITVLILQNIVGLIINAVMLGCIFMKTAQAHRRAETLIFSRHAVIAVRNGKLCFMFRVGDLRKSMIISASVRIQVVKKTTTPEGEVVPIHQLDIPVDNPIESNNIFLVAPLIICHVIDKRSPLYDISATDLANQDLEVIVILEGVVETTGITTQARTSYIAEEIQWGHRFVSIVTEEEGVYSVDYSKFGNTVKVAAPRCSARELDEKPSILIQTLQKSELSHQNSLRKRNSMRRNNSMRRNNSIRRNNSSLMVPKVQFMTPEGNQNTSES
# method_summary: Percent inhibition of glibenclamide binding to K+ channel
# Assay type: protein-complex assay
# Design: concentration or dose not given beside the values
Entries and their Activity values follow.
test_readout: Activity (%)

> print(dat)
                                   compound  test.readout  unit.label  observed.result
1  COc1cc2c(cc1OC)C1c3[nH]c4ccccc4c3CCN1CC2 (configuration not stated)      Activity           %               11
2  CN1CCc2c([nH]c3ccccc23)Cc2[nH]c3ccccc3c2CC1      Activity           %                0
3  C[N+]12CCc3c([nH]c4ccccc34)C1c1[nH]c3ccccc3c1CC2 (configuration not stated)      Activity           %                6
4  COc1cc2c(cc1OC)Cc1[nH]c3ccccc3c1CCN(C)CC2      Activity           %                1
5  c1ccc2c(c1)CCN1CCc3c([nH]c4ccccc34)C21 (configuration not stated)      Activity           %               12
6         CN1CCc2ccccc2Cc2[nH]c3ccccc3c2CC1      Activity           %               10
7  c1ccc2c3c([nH]c2c1)C1c2[nH]c4ccccc4c2CCN1CC3      Activity           %                7
